Measured microsomal CLint at 1 μM accompanies every entry in the list below.
Assay: Microsomal stability assay, human liver microsomes
Format: in vitro ADME
Settings: pH 7.4, 1 μM compound, 0.5 mg/mL protein, 37° C., read-out: HLM +/− NADPH: Clint (μL/min/mg protein)

| Structure | microsomal CLint at 1 μM |
| --- | --- |
| CC(C)(c1ccc(OCc2ncoc2S(C)(=O)=O)cc1)c1cc(Cl)c(OCCCl)c(C#N)c1 | < 12 µL/min/mg |
| CC(C)(c1ccc(OCc2nc(NS(C)(=O)=O)nc3c2CCOC3)cc1)c1cc(Cl)c(OCCCl)c(C#N)c1 | < 12 µL/min/mg |
| CC(C)(c1ccc(OCc2ccnc(NS(C)(=O)=O)n2)cc1)c1cc(Cl)c(OCCCl)c(Cl)c1 | < 12 µL/min/mg |
| CC(=O)Nc1nccc(COc2ccc(C(C)(C)c3cc(C)c(OCCCl)c(C#N)c3)cc2)n1 | ≥ 48 µL/min/mg |

// moving on: another record for microsomal CLint at 1 μM
Incoming: Hello, please tell me recorded microsomal CLint at 1 μM for this one: CC(C)(c1ccc(OCc2nccc(NS(C)(=O)=O)n2)cc1)c1cc(Cl)c(OCCCl)c(Cl)c1
Outgoing: < 12 µL/min/mg

* * *

Experiment: Microsomal stability assay, mouse liver microsomes
Format: in vitro ADME
Settings: mouse, liver microsomes, pH 7.4, mouse liver microsomes, 1 μM compound, 0.5 mg/mL protein, 37° C.; read-out: MLM +30/− NADPH: Clint (μL/min/mg protein)
Property Label: microsomal CLint at 1 μM

| Structure | microsomal CLint at 1 μM |
| --- | --- |
| CC(C)(c1ccc(CNc2ccnc(NS(C)(=O)=O)n2)cc1)c1cc(Cl)c(OCCCl)c(C#N)c1 | < 12 µL/min/mg |
| CN1C(=O)N(Cc2ccc(C(C)(C)c3cc(Cl)c(OCCCl)c(Cl)c3)cc2)C(=O)C1(C)C | ≥ 48 µL/min/mg |
| CC(C)S(=O)(=O)c1ncc(COc2ccc(C(C)(C)c3cc(Cl)c(OCCCl)c(C#N)c3)cc2)o1 | ≥ 48 µL/min/mg |

Incoming: Report microsomal CLint at 1 μM for CC(=O)Nc1nccc(COc2ccc(C(C)(C)c3cc(C)c(OCCCl)c(C#N)c3)cc2)n1
Outgoing: ≥ 48 µL/min/mg

* * *

Assay: Microsomal stability assay, mouse liver microsomes
Type: in vitro ADME
Settings: mouse, liver microsomes, pH 7.4, mouse liver microsomes, 1 μM compound, 0.5 mg/mL protein, 37° C.; read-out: MLM +30/− NADPH: Clint (μL/min/mg protein)
Property Label: microsomal CLint at 1 μM

Incoming: Let me know recorded microsomal CLint at 1 μM for CC(C)(c1ccc(OCc2coc(S(N)(=O)=O)c2)cc1)c1cc(Cl)c(OCCCl)c(C#N)c1 [Compound A207] , thanks.
Outgoing: < 12 µL/min/mg

* * *

Experiment: Microsomal stability assay, human liver microsomes
Type: in vitro ADME
Conditions: pH 7.4, 1 μM compound, 0.5 mg/mL protein, 37° C., read-out: HLM +/− NADPH: Clint (μL/min/mg protein)
Property Label: microsomal CLint at 1 μM

Guide cases for microsomal CLint at 1 μM, answers given:
| Compound | Reading |
| --- | --- |
| CCS(=O)(=O)Nc1nccc(COc2ccc(C(C)(C)c3cc(Cl)c(OCCCl)c(C#N)c3)cc2)n1 | < 12 µL/min/mg |
| COc1c(Cl)cc(C(C)(C)c2ccc(OCc3coc(NS(C)(=O)=O)n3)cc2)cc1C#N | < 12 µL/min/mg |
| Cc1cc(C(C)(C)c2ccc(OCc3csc(S(C)(=O)=O)n3)cc2)cc(C#N)c1OCCCl | 12 to 48 µL/min/mg |

Now for the compound whose microsomal CLint at 1 μM we want.
Incoming: Name the recorded microsomal CLint at 1 μM of the compound listed here: Cc1cc(C(C)(C)c2ccc(OC(C)c3ncc(S(C)(=O)=O)o3)cc2)cc(C#N)c1OCCCl (stereo not shown)
Outgoing: 12 to 48 µL/min/mg

Data provenance: patent US11059795B2
